The entries below are paired with their reported protein stability index.
B1: CAMK2D (parent)
chain: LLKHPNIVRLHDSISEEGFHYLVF

# Variants of: B1
# TEST_DESCRIPTION: protein stability index of a GFP-peptide fusion (GPS, HEK-293T) (PSI 1-6); higher = more stable;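 also: lentivirally expressed fusions sorted by FACS into six bins by GFP to DsRed ratio, PSI derived from sequencing read proportions per bin multiplied by bin number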
# REPORTED_CONDITIONS: c terminus: a fixed tail appended
ATTRIBUTE_MEASURED: protein stability index

> print(dat)
    mutation.descriptor  observed.value
 1                 H11P            2.42
 2                 S15D            1.44
 3                  K3P             2.1
 4                 L22H            2.19
 5                 V23S            1.85
 6                 I14T            1.91
 7                  L1C            1.97
 8                 S15V             2.2
 9                 V23W            2.78
10                  L1V            2.25
11                 G18H            1.78
12                  V8Y            2.91
13                 V23I            1.99
14                 L22E            2.22
15                 Y21D            2.51
16                  H4F            1.88
17                 S13Q             1.7
18                 H20S            2.75
19                  H4S            1.94
